- Test system: SNB-19
- Experiment: NCI tumour cell line growth inhibition, 48 h
Calls of active or inactive are those of the source. Cut-off read from the data, not from the text of the source: active = GI50 up to about 1.1 µM and inactive = higher.
Select the matching outcome among T = active, F = inactive

Some solved entries appear below for comparison.
IN: Lab log entry: C#CC(O)/C=C/CCCCCCC#CC/C=C\CC#CCCCCCCCCC(O)C#C (configuration not stated) — outcome as called in the assay?
OUT: F

IN: Lab log entry: COC(=O)c1ccc(Oc2nc3ccccc3nc2-c2cccs2)cc1 — outcome as called in the assay?
OUT: F

IN: Lab log entry: CN(C(=O)CC(=O)CP(=O)(c1ccccc1)c1ccccc1)c1ccccc1 — outcome as called in the assay?
OUT: F

IN: Lab log entry: NCCCCC(N)C(=O)N1CCN(c2nc(N3CCCC3)c3nc(Cl)c(NCc4ccccc4)nc3n2)CC1 (configuration not stated) — outcome as called in the assay?
OUT: F

IN: Lab log entry: N=C(CC(=O)Nc1ccc(Cl)cc1)Nc1ccccc1 — outcome as called in the assay?
OUT: F

Let's switch to this compound now.
IN: Lab log entry: CC(=O)OC(C)(C)[C@@H]1CC[C@]2(C)/C=C/[C@H](C)C[C@@H](O)C3=C(C)C[C@@H](O3)C12 (some centres not stated) — outcome as called in the assay?
OUT: F

----------
Listed here: items and their measured GI50.
- System: 786-0
- Experiment: NCI tumour cell line growth inhibition, 48 h
Calls of active or inactive are those of the source. Cut-off read from the data, not from the text of the source: active = GI50 up to about 1.1 µM and inactive = higher.

Some molecules with recorded GI50:
IN: Using the record for O=c1ccn(C2OC(CO)C(O)C2[Se]c2ccccc2)c(=O)[nH]1 (stereo unspecified) , report its GI50.
OUT: > 100 µM (inactive)

IN: Using the record for Cc1cc(N(CCC#N)CCC#N)ccc1CC1N=C(c2ccccc2)OC1=O (stereo unspecified) , report its GI50.
OUT: > 100 µM (inactive)

IN: Using the record for CC(=O)NNC(=O)C1CCCCN1 (stereo unspecified) , report its GI50.
OUT: > 100 µM (inactive)

IN: Using the record for COC1=CC2(CC(OC)=C1OC)OC21COc2ccccc2C1=O (stereo unspecified) , report its GI50.
OUT: 37.7 µM (inactive)

***
IN: Using the record for CCSCCC(N)C(=O)O (stereo unspecified) , report its GI50.
OUT: > 100 µM (inactive)

IN: Using the record for CN(C(=O)CC(=O)CP(=O)(c1ccccc1)c1ccccc1)c1ccccc1 , report its GI50.
OUT: > 100 µM (inactive)

IN: Using the record for Cc1ccc(NC(=O)C(=O)CC(=O)c2sc(Nc3c(C)cccc3C)nc2C)cc1C , report its GI50.
OUT: > 100 µM (inactive)

IN: Using the record for N#Cc1c(N2CCOCC2)[nH]c(=O)c(C(c2c(Cl)cccc2Cl)c2c(O)c(C#N)c(N3CCOCC3)[nH]c2=O)c1O , report its GI50.
OUT: 32 µM (inactive)

IN: Using the record for COc1ccccc1/C=C\c1cnnc2ccccc12 , report its GI50.
OUT: > 10 µM (inactive)

IN: Using the record for O=C1CCCC(=O)N1n1c(Cc2ccccc2)n[nH]c1=O , report its GI50.
OUT: > 100 µM (inactive)

IN: Using the record for CC(C)c1ccc2nc3ccc(C(=O)NCCN(C)C)cn3c(=O)c2c1 , report its GI50.
OUT: 14.6 µM (inactive)
